# Lookup of reported combination Emax keyed by entry
# System: NALM-6 (B-Lymphoblastic Leukemia)
# Assay summary: combination Emax (second highest fraction inhibited in the dose matrix, 72 h); higher = more inhibition; extreme values may be limits of the assay
// no unit string in output, number only

Query :: Missing value: combination Emax, NALM-6 (B-Lymphoblastic Leukemia), entry C[C@@H]1COCCN1c1cc(C2([S@](C)(=N)=O)CC2)nc(-c2ccnc3[nH]ccc23)n1 [AZD6738] + C1CC(C1)(C(=O)[O-])C(=O)[O-].N.N.[Pt+2] [Carboplatin] (first compound max 10 µM, 7x7, partner max 10 µM) . Fill in?
Result :: 0.924

Query :: Reported combination Emax for NALM-6 (B-Lymphoblastic Leukemia), given Cc1cc2ncnn2cc1Nc1ncc2c(n1)n(C1CCOCC1)c(=O)n2C [AZD7648] + COc1cc([C@@H]2c3cc4c(cc3[C@@H](O[C@@H]3O[C@@H]5CO[C@@H](C)O[C@H]5[C@H](O)[C@H]3O)[C@H]3COC(=O)[C@H]23)OCO4)cc(OC)c1O [Etoposide] (first compound max 10 µM, 7x7, partner max 10 µM) ?
Result :: 1

Query :: API: value(readout=combination Emax, system=NALM-6 (B-Lymphoblastic Leukemia)) for record CC1(C)CCC(CN2CCN(c3ccc(C(=O)NS(=O)(=O)c4ccc(NCC5CCOCC5)c([N+](=O)[O-])c4)c(Oc4cnc5[nH]ccc5c4)c3)CC2)=C(c2ccc(Cl)cc2)C1 [Venetoclax] + CCN(CCO)CCCOc1ccc2c(Nc3cc(CC(=O)Nc4cccc(F)c4)[nH]n3)ncnc2c1 [AZD2811] (first compound max 1 µM, 7x7, partner max 1 µM)
Result :: 0.97

* * *

# System: HCC2157 (Breast Carcinoma)
# Assay summary: combination Emax (second highest fraction inhibited in the dose matrix, 72 h); higher = more inhibition; extreme values may be limits of the assay
Reported endpoint: combination Emax
Give the value as a plain number.

Query :: Which combination Emax is reported with HCC2157 (Breast Carcinoma) for this entry: Cn1cnc2c(F)c(Nc3ccc(Br)cc3Cl)c(C(=O)NOCCO)cc21 [Selumetinib] + C[C@@H]1COCCN1C2=NC(=NC(=C2)C3(CC3)[S@](=N)(=O)C)C4=C5C=CNC5=NC=C4 [AZD6738] (first compound max 10 µM, 7x7, partner max 10 µM) ?
Result :: 0.856

Query :: Form field - read-out: combination Emax; system: HCC2157 (Breast Carcinoma); submitted item: Cc1c2c(nn1C)CSCc1cc(n(C)n1)CSc1cc(c3ccccc3c1)OCCCc1c(C(=O)O)n(C)c3c-2c(Cl)ccc13 [AZD5991] + C[C@@H](Nc1cc(F)cc(F)c1)c1cc(C(=O)N(C)C)cc2c(=O)cc(N3CCOCC3)oc12 [AZD8186] (first compound max 1 µM, 7x7, partner max 3 µM)
Result :: 0.987

* * *

# Tested on: OCI-AML2 (Acute Myeloid Leukemia)
# Assay summary: combination Emax (second highest fraction inhibited in the dose matrix, 72 h); higher = more inhibition; extreme values may be limits of the assay
Reported endpoint: combination Emax

Recorded results for 2 molecules are shown here.
Query :: What value of measured combination Emax is listed for CN(CCO)CC[C@H](CSc1ccccc1)Nc1ccc(S(=O)(=O)NC(=O)c2ccc(N3CCC([C@@H](O)c4ccccc4-c4ccc(Cl)cc4)CC3)cc2)cc1S(=O)(=O)C(F)(F)F [AZD4320] + C[C@@H]1COCCN1C2=NC(=NC(=C2)C3(CC3)[S@](=N)(=O)C)C4=C5C=CNC5=NC=C4 [AZD6738] (first compound max 1 µM, 7x7, partner max 10 µM) ?
Result :: 1

Query :: Return reported combination Emax; argument: Cc1c2c(nn1C)CSCc1cc(n(C)n1)CSc1cc(c3ccccc3c1)OCCCc1c(C(=O)O)n(C)c3c-2c(Cl)ccc13 [AZD5991] + CS(=O)(=O)CCNCc1ccc(-c2ccc3ncnc(Nc4ccc(OCc5cccc(F)c5)c(Cl)c4)c3c2)o1 [Lapatinib] (first compound max 1 µM, 7x7, partner max 10 µM)
Result :: 0.978

Here is the next item to consider.
Query :: // returns reported combination Emax for input COc1nnc2ccc(N3CCC(c4ccc(OCCN5CCN(C)C(=O)[C@H]5C)cc4)CC3)nn12 [AZD5153] + CC1(C)CCC(CN2CCN(c3ccc(C(=O)NS(=O)(=O)c4ccc(NCC5CCOCC5)c([N+](=O)[O-])c4)c(Oc4cnc5[nH]ccc5c4)c3)CC2)=C(c2ccc(Cl)cc2)C1 [Venetoclax] (first compound max 1 µM, 7x7, partner max 1 µM)
Result :: 1
